GI50 values by entry
Test system: T47D
Experiment: NCI tumour cell line growth inhibition, 48 h
Calls of active or inactive are those of the source. Cut-off read from the data, not from the text of the source: active = GI50 up to about 1.1 µM and inactive = higher.
metric.name: GI50

> print(dat)
                                    compound                value
 1  CCOC(=O)CC1(N)CC2c3ccccc3OC(=O)C2C(=O)N1 (stereo not given)  > 100 µM (inactive)
 2  CCOC(=O)c1c(N2CCCC2)[nH]c(=O)c(C(c2ccc(OC)cc2)c2c(O)c(C(=O)OCC)c(N3CCCC3)[nH]c2=O)c1O  > 100 µM (inactive)
 3  COc1cccc(Nc2nc(NNC(=O)Cc3ccccc3)nc(NNC(=O)c3ccncc3)n2)c1   > 10 µM (inactive)
 4               O=C(CC(=O)c1ccncc1)c1ccccc1  > 100 µM (inactive)
 5  COC(=O)C(Cc1c(C2Nc3ccccc3C2CC(NC(=O)CNC(C)=O)C(=O)OC)[nH]c2ccccc12)NC(=O)CNC(C)=O (stereo not given)  > 100 µM (inactive)
 6         COc1cc(O)c(/C=N/N=C(\N)NO)c(OC)c1   > 10 µM (inactive)
 7  C=C1C(=O)O[C@H]2[C@@H](O)[C@H](C)CCC[C@]3(C)O[C@H]3CC[C@@]3(C)O[C@@H]3C[C@@H]12   7.66 µM (inactive)
 8  NC(CSS(=O)(=O)c1ccccc1)C(=O)O (stereo not given)   > 10 µM (inactive)
 9  C[N+](C)(CCNc1ccc(NCC[N+](C)(C)Cc2ccc([N+](=O)[O-])cc2)c2c1C(=O)c1c(O)ccc(O)c1C2=O)Cc1ccc([N+](=O)[O-])cc1   > 50 µM (inactive)
10  CC1(C)CC(=O)C2=C(C1)OC1=C(CC(C)(C)CC1=O)C2c1ccccc1[N+](=O)[O-] (stereo not given)  > 100 µM (inactive)

----------
Test system: EKVX
Assay: NCI tumour cell line growth inhibition, 48 h
The source made the active and inactive calls. No stated cut-off is given here; in the data, active = GI50 up to about 1.1 µM and inactive = higher.
GI50 values by entry
metric.name: GI50

> print(dat)
                                   compound  metric.name                value
1  O=C1NC(=O)C(COCc2ccccc2)C2=C1SCCC2 (stereo not drawn)         GI50  > 100 µM (inactive)
2  C[C@@H](c1ccccc1)N1CN(C(=O)OCc2ccccc2)C(C)(C)CC1=O         GI50  > 100 µM (inactive)
3  COCC1N=C(c2cc(OC)c(OC)c(OC)c2-c2cc3c(cc2C2OCCCO2)OCO3)O[C@H]1c1ccccc1 (stereo partly drawn)         GI50  > 100 µM (inactive)

----------
Tested on: U-251
Assay: NCI tumour cell line growth inhibition, 48 h
The source made the active and inactive calls. No stated cut-off is given here; in the data, active = GI50 up to about 1.1 µM and inactive = higher.
GI50 values by entry
metric.name: GI50

compound	tested.on	value
O=C1NC(=O)C(COCc2ccccc2)C2=C1SCCC2 (centres undefined)	U-251	> 100 µM (inactive)
O=C(Nc1cccc(F)c1)c1cc2ccc(O)cc2o/c1=N\c1ccccc1F	U-251	3.21 µM (inactive)
CC(=O)OCC1OC(n2c3c(c(-c4ccco4)c(C#N)c2=S)CCC3)C(OC(C)=O)C(OC(C)=O)C1OC(C)=O (centres undefined)	U-251	54.6 µM (inactive)
CC(=O)Nc1ccc(C2[C@H]3C(=O)N(c4ccc(Cc5ccc(N6C(=O)[C@@H]7ON(c8ccccc8)C(c8ccc(NC(C)=O)cc8)[C@@H]7C6=O)cc5)cc4)C(=O)[C@H]3ON2c2ccccc2)cc1 (some centres undefined)	U-251	> 100 µM (inactive)
CNC1c2ccccc2C(=O)c2cc3c(cc21)OCCOCCOCCOCCO3 (centres undefined)	U-251	> 100 µM (inactive)
Nc1ncnc2c1ncn2CCCC(c1ccccc1)P(=O)(O)O (centres undefined)	U-251	> 100 µM (inactive)
O=C(NC1CCCCC1)NS(=O)(=O)c1ccc2c(c1)CCC2 [GLYHEXAMIDE]	U-251	> 100 µM (inactive)
COC(OC)[C@@H](C)[C@H](O)[C@](C)(O)C1OC(C)(C)OC(C(C)C=C(C)C)C1C (some centres undefined)	U-251	> 100 µM (inactive)
COC[C@@H](/N=C/C(C)(C)C)C(C)C	U-251	> 100 µM (inactive)

----------
GI50 values by entry
System: BT-549
Test: NCI tumour cell line growth inhibition, 48 h
Active and inactive are the calls of the source. No stated cut-off is given here; in the data, active = GI50 up to about 1.1 µM and inactive = higher.
metric.name: GI50

> print(dat)
                                   compound  metric.name                value
1  CC(C)(C)OC(=O)NCCC1CNc2ccccc21 (configuration not stated)         GI50  > 100 µM (inactive)
2   CC(C)CC(=O)NC(NC(C)C)(C(F)(F)F)C(F)(F)F         GI50  > 100 µM (inactive)
3  CCOC(=O)CC1(N)CC2c3ccccc3OC(=O)C2C(=O)N1 (configuration not stated)         GI50  > 100 µM (inactive)
4        Cc1oncc1/N=C1\C=C(O)C(=O)c2ccccc21         GI50   12.4 µM (inactive)
5  CO/N=C/c1c(-c2ccc(Cl)cc2)c(/C=N/OC)n2c1sc1ccccc12         GI50  > 100 µM (inactive)
6                   N#Cc1cccc2c1Sc1ccccc1N2         GI50   28.4 µM (inactive)
7            C/C(=C\CO)CC/C=C(\C)CNc1ccccc1         GI50   18.6 µM (inactive)

----------
Test system: HOP-62
Assay: NCI tumour cell line growth inhibition, 48 h
The source made the active and inactive calls. Rule as the data show it: active = GI50 up to about 1.1 µM and inactive = higher.
Possible outcomes: active, inactive

compound	assigned.category
CCCNC(=S)N/C=C1/C(=O)Oc2ccccc2C1=O	inactive
COc1ccc2c(c1)CCc1cc(C(N)=O)c3nnnn3c1-2	inactive
c1ccc(C(NC2=NCCO2)c2ccccc2)cc1	inactive
C=CCn1c(=S)sc2c(C(=O)OCC)c3c(C)cc(C)cn3c2c1=O	inactive
COc1ccc(Cc2nc3cc(C(F)(F)F)ccc3n2C[C@@H]2CCCN3CCCCC23)cc1 (some centres not stated)	inactive
CC(C)=CCC/C(C)=C/COc1c2ccoc2cc2oc(=O)ccc12	inactive
COc1cc2cc(C(=O)N3CC(CCl)c4c3cc(NC(=O)C(C)Nc3c([N+](=O)[O-])cc(C(=O)NCCN(C)C)cc3[N+](=O)[O-])c3ccccc43)[nH]c2c(OC)c1OC (configuration not stated)	active
COc1ccc(N2C(=O)C3c4[nH]c5ccc(C)cc5c4C4CCC(c5ccccc5)CC4C3C2=O)cc1 (configuration not stated)	inactive
O=C(CC(=O)c1ccncc1)c1ccccc1	inactive
CC(=O)Oc1ccccc1C(=O)Nc1ncc([N+](=O)[O-])s1 [NITAZOXANIDE]	inactive
CC(=O)N/N=C1/CC[C@@]2(C)C(=CC[C@H]3C4CCC(C(C)CCCC(C)C)[C@@]4(C)CCC32)C1(C)C (some centres not stated)	inactive
CCCCCNC1=CC(=O)c2ccccc2C1=O	inactive

----------
GI50 values by entry
Test system: 786-0
Experiment: NCI tumour cell line growth inhibition, 48 h
Activity calls are given as the source filed them. Rule as the data show it: active = GI50 up to about 1.1 µM and inactive = higher.
metric.name: GI50

> print(dat)
                                    compound  tested.on                value
 1      COc1cc2c(cc1OC)C(=O)N(c1ccc(O)cc1)C2      786-0  > 100 µM (inactive)
 2   O=[N+]([O-])c1cccc(Nc2nc(Cl)nc(Cl)n2)c1      786-0  > 100 µM (inactive)
 3  C=C1C(=O)O[C@H]2[C@@H](O)[C@H](C)CCC[C@]3(C)O[C@H]3CC[C@@]3(C)O[C@@H]3C[C@@H]12      786-0   5.15 µM (inactive)
 4                  O=C(O)Cc1cc(F)ccc1C(=O)O      786-0  > 100 µM (inactive)
 5              COc1ccccc1-c1cc(O)c2cccnc2n1      786-0     76 µM (inactive)
 6            Cn1c2ccccc2c2nc3ccccc3c(Cl)c21      786-0  > 100 µM (inactive)
 7                   CS(=O)(=O)OCOS(C)(=O)=O      786-0  > 100 µM (inactive)
 8  Cc1cc(C)nc(NCCC(O)(P(=O)(O)O)P(=O)(O)O)n1      786-0  > 100 µM (inactive)
 9                        Oc1cc(F)cc2cccnc12      786-0   7.29 µM (inactive)
10               CCCCCCCCCCCCCCCCP(=O)(OC)OC      786-0   17.6 µM (inactive)
11  O=C(NC1CCCCC1)NS(=O)(=O)c1ccc2c(c1)CCC2 [GLYHEXAMIDE]      786-0  > 100 µM (inactive)
12        CC(=O)Nn1c(Cc2ccc(Cl)cc2)nn(C)c1=O      786-0  > 100 µM (inactive)
13  O=C(/C=N/O)c1c(-c2ccccc2)[nH]c(-c2ccccc2)c1-c1ccccc1      786-0   54.1 µM (inactive)
14  O=c1ccc2ccc(O)c3c4c(O)ccc5ccc(=O)c(c1c23)c54      786-0   2.31 µM (inactive)
15            C=C(Br)COc1ccc2c(C)cc(=O)oc2c1      786-0  > 100 µM (inactive)
16                CN(C)C(=S)/N=c1\ssc(=S)n1C      786-0  > 100 µM (inactive)
17            O=c1[nH]nc(Cc2ccc(Cl)cc2)n1CCO      786-0  > 100 µM (inactive)
18  CCCCCCCCC[C@@H]1C[C@@H]2CCC3C(C(=O)OCCCCNC(=O)OCc4ccccc4)=C(C)N=C(N1)N32 (stereo partly specified)      786-0   1.76 µM (inactive)
19  CCOC(=O)C1CCCN1C(=O)c1ccccc1Cl (stereo unspecified)      786-0  > 100 µM (inactive)
20      O=c1[nH]c(=O)c2c([nH]1)[nH]c1ccccc12      786-0  > 100 µM (inactive)
21                CN(C)CN1CSC(=S)N(CN(C)C)C1      786-0     43 µM (inactive)
22  COc1ccc(C(=O)NC2=C(Cl)C(=O)c3ccccc3C2=O)cc1      786-0   5.36 µM (inactive)
23     Cc1cc(Br)ccc1NC1=CC(=O)C(=O)c2ccccc21      786-0   38.5 µM (inactive)
24  Cc1ccc(C)c(NC(=O)C(=O)C(c2cnc3ccc([N+](=O)[O-])cc3n2)[N+](=O)[O-])c1 (stereo unspecified)      786-0   52.8 µM (inactive)
25  CCCCCCCCCCCCCCCCOC[C@@H](COC(c1ccccc1)(c1ccccc1)c1ccccc1)O[PH](=S)OC (stereo partly specified)      786-0   6.49 µM (inactive)
26  CC(C)(C)[Si](C)(C)OCC1OC(n2ccc(N)nc2=O)C(O[Si](C)(C)C(C)(C)C)C1O[Si](C)(C)C(C)(C)C (stereo unspecified)      786-0   1.59 µM (inactive)
